meta.source: patent US20170298096A1

Measured RAMPO Score of individual entries
Biological target: T1, His-tagged P3028 peptide (PGE73) (human)
T1 construct: albumin-derived peptide, in solution at 0.5 ug/mL; not shown: His-tag
T1 peptide: VFDEFKPLVEEPQNLIK
Assay: PEPSCAN ELISA, peptide on card

{"columns": ["binder", "RAMPO Score"],
 "data": [
  ["KKLDTFFVKRSLFTER [SEQ ID NO: 340 KKLDTFFVKRSLFTER]", 439]
]}

Notebook: KKLDTFFVKLSLNTER [SEQ ID NO: 368 KKLDTFFVKLSLNTER] , RAMPO Score read as 862

Notebook: KKLDTFFVKLSLTTER [SEQ ID NO: 373 KKLDTFFVKLSLTTER] , RAMPO Score read as 494

Notebook: KKLDTFFVKLSLFTEK [SEQ ID NO: 389 KKLDTFFVKLSLFTEK] , RAMPO Score read as 291
